Origin of values: ChEMBL document CHEMBL4270548

target: Hexokinase-4 (Homo sapiens) (UniProt P35557); experiment: Activation of human glucokinase assessed as conversion of D-glucose to D-glucose-6-phosphate at 10 uM preincubated for 10 mins […] measured for 5 mins at 30 secs time interval by G6PDH/NADP coupled assay relative to RO0281675
Sequence (P35557 whole entry): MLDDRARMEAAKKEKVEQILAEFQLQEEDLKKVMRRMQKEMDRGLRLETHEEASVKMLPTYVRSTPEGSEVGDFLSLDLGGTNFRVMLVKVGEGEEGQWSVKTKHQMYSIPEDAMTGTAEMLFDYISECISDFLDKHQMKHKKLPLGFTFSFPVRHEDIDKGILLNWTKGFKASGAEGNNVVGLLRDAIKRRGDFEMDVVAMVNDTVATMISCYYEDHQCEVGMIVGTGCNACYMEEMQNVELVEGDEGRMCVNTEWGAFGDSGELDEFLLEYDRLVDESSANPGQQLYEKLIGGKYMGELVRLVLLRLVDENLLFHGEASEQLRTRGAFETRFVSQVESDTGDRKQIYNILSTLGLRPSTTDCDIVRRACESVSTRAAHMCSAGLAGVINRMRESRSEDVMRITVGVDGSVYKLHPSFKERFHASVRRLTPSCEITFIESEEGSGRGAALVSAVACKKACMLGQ

{"Molecule": "Cc1sc(N2CCCC2=O)cc1C(=O)Nc1nc2c(s1)CCC2", "fold change (FC)": 0.168}
{"Molecule": "Cc1sc(C2CCCN2C(=O)CN(C)C)cc1C(=O)Nc1ncc(Cl)s1 (stereo not drawn)", "fold change (FC)": 0.598}
{"Molecule": "CC(=O)NCC(=O)N1CCCC1c1cc(C(=O)Nc2ncc(Cl)s2)c(C)s1 (stereo not drawn)", "fold change (FC)": 0.395}
{"Molecule": "Cc1sc(-c2ccccc2C(=O)NCCO)cc1C(=O)Nc1nc2c(s1)CCC2", "fold change (FC)": 0.373}
{"Molecule": "Cc1sc(C2CCCN2C(=O)CCN)cc1C(=O)Nc1nccs1 (stereo not drawn)", "fold change (FC)": 0.175}
{"Molecule": "Cc1sc(-c2ccccc2C(=O)NCCC(N)=O)cc1C(=O)Nc1nc2c(s1)CCC2", "fold change (FC)": 0.187}
{"Molecule": "CCN(CC(=O)O)CC(=O)N1CCC[C@H]1c1cc(C(=O)Nc2ncc(F)s2)c(C)s1", "fold change (FC)": 0.87}
{"Molecule": "Cc1sc(-c2ccccc2C(=O)NCCc2nnn[nH]2)cc1C(=O)Nc1nc2c(s1)CCC2", "fold change (FC)": -0.019}
